Data origin: patent US20210253718A1

# System: T1, FZD3 cysteine-rich domain (CRD), MYC-tagged and GPI-anchored on CHO cells (human, UniProt Q9NPG1 24-150, GPI anchor)
# T1 construct: domain: cysteine-rich domain (CRD); also called FZD3 CRD; CHO-myc-FZDGPI; not shown: MYC tag and GPI anchor signal
# T1 sequence (looked up): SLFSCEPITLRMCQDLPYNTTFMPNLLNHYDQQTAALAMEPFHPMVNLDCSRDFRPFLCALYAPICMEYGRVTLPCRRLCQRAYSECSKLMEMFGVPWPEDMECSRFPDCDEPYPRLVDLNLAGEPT
# Protocol details: immunofluorescence, CHO-CRD cells
Measurement type: binding result

Fab-2932 (Fab, V domains shown, Fab; also called Fv-2932) VH: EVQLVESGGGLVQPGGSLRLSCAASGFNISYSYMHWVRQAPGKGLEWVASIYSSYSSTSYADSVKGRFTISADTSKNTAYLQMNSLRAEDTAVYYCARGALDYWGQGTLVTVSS VL: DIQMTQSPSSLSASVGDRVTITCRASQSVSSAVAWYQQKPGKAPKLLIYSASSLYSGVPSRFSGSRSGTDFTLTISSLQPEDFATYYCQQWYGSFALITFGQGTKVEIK = no binding
Fab-2935 (Fab, V domains shown, Fab; also called Fv-2935) VH: EVQLVESGGGLVQPGGSLRLSCAASGFNIYYYYIHWVRQAPGKGLEWVASIYPSSGSTSYADSVKGRFTISADTSKNTAYLQMNSLRAEDTAVYYCARAAFDYWGQGTLVTVSS VL: DIQMTQSPSSLSASVGDRVTITCRASQSVSSAVAWYQQKPGKAPKLLIYSASSLYSGVPSRFSGSRSGTDFTLTISSLQPEDFATYYCQQWYGGYALITFGQGTKVEIK = no binding
Fab-2916 (Fab, V domains shown, Fab) VH: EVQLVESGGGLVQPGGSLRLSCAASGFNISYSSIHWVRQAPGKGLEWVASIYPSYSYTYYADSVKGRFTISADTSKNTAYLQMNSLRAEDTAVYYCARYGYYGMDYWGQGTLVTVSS VL: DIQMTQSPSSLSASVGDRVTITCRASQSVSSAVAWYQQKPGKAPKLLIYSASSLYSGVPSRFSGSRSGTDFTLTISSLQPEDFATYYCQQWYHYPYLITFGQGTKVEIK = no binding
